TARGET OR TEST SYSTEM: Prostaglandin G/H synthase 1 (Homo sapiens, UniProt P23219)
Sequence (P23219 whole entry): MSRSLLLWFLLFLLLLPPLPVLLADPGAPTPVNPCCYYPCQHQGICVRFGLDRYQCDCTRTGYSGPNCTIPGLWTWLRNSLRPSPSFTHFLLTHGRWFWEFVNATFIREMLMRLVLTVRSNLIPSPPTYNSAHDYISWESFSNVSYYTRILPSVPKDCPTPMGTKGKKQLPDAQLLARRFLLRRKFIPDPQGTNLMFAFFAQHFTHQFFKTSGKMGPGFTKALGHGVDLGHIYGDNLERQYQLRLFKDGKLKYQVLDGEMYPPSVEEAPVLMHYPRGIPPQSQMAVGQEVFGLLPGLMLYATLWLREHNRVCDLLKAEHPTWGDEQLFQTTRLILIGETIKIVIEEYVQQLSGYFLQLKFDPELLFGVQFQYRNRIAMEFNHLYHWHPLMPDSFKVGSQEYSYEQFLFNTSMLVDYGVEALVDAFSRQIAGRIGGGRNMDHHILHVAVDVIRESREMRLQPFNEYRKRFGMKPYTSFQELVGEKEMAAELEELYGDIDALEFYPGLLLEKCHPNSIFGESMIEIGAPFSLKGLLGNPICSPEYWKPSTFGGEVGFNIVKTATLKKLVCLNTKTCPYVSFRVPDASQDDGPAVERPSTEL
VALUE TYPE: pIC50
# pIC50 = -log10(concentration in molar units)

// returns pIC50 for "COc1ccc2c(c1)c(CC(=O)OCC(=O)O)c(C)n2C(=O)c1ccc(Cl)cc1" with Prostaglandin G/H synthase 1 (Homo sapiens, UniProt P23219); value = 8.00

* * *

PROTOCOL: Apparent oral clearance in human
VALUE TYPE: CL/F (mL/min)
Value expressed in mL/min; do not type the unit.

MOLECULE SMILES: Cc1[nH]c2ccccc2c1CCNCc1ccc(/C=C/C(=O)NO)cc1
NUMBER: 2670

Record "CCc1cc2c(cc1N1CCC(N3CCOCC3)CC1)C(C)(C)c1[nH]c3cc(C#N)ccc3c1C2=O" , field CL/F: 1370

* * *

PROTOCOL: AUC in ICR mouse
Type: ADME
DETAILS: in vivo
VALUE TYPE: AUC (ng·h/mL)
Value expressed in ng·h/mL; do not type the unit.

Record "CC(C)C[C@H]1C(=O)N2CCC[C@H]2[C@]2(O)O[C@](NC(=O)[C@@H]3C=C4c5cccc6[nH]c(Br)c(c56)C[C@H]4N(C)C3)(C(C)C)C(=O)N12" , field AUC: 2.38

* * *

PROTOCOL: Cmax in human at 4 mg, po
Assay type: ADME
Parameters: dose 4 mg, route po
DETAILS: in vivo
VALUE TYPE: Cmax (ng/mL)
Value expressed in ng/mL; do not type the unit.

Record "CCOC(=O)c1c(CSc2ccccc2)n(C)c2cc(Br)c(O)c(CN(C)C)c12" , field Cmax: 415

* * *

PROTOCOL: Effective half life in human
DETAILS: in vivo, read-out: t1/2eff (converted)
VALUE TYPE: half-life (h)
Value expressed in h; do not type the unit.

Record "CC(C)(CO)c1cc2cc(NC(=O)C3(c4ccc5c(c4)OC(F)(F)O5)CC3)c(F)cc2n1C[C@@H](O)CO" , field half-life: 25.1

* * *

# key: entry, value: half-life
PROTOCOL: Terminal half life in human at 10 mg/kg, iv
DETAILS: in vivo, read-out: beta t1/2 (converted)
Value expressed in h; do not type the unit.

MOLECULE SMILES: CCCCCNC(=N)N/N=C/c1c[nH]c2ccc(OC)cc12
NUMBER: 11

Record "CN1CC(=O)N2[C@H](c3ccc4c(c3)OCO4)c3[nH]c4ccccc4c3C[C@@H]2C1=O" , field half-life: 17.5

Record "CCC1=C[C@@H]2CN(C1)Cc1c([nH]c3ccccc13)[C@@](C(=O)OC)(c1cc3c(cc1OC)N(C)[C@H]1[C@@](O)(C(=O)OC)[C@H](OC(C)=O)[C@]4(CC)C=CCN5CC[C@]31[C@@H]54)C2" , field half-life: 27.7

* * *

PROTOCOL: Initial half life in iv dosed mouse
DETAILS: in vivo, read-out: beta t1/2
VALUE TYPE: half-life (min)
Value expressed in min; do not type the unit.

Record COC(=O)[C@@H]1[C@H]2C[C@H]3c4[nH]c5ccccc5c4CCN3C[C@@H]2CC[C@@H]1O [YOHIMBINE] , field half-life: 3.7

* * *

PROTOCOL: Inhibition of tyrosine kinase (unknown origin)
Design: species or system Homo sapiens
VALUE TYPE: pIC50
# pIC50 = -log10(concentration in molar units)

Record C=CC(=O)Nc1cc(Nc2nccc(-c3cn(C)c4ccccc34)n2)c(OC)cc1N(C)CCN(C)C [OSIMERTINIB] , field pIC50: 7.56

* * *

PROTOCOL: Apparent oral clearance in human at 100 mg, po by LC-MS/MS analysis
Assay type: ADME, organism-based
DETAILS: in vivo
VALUE TYPE: CL/F
# answer = value followed by unit

Record "COc1cc(C(=O)NS(=O)(=O)c2ccccc2C)ccc1Cc1cn(C)c2ccc(NC(=O)OC3CCCC3)cc12" , field CL/F: 333 mL/min

* * *

PROTOCOL: Elimination half life in human
Format: ADME
DETAILS: read-out: beta t1/2 (converted)
# key: entry, value: half-life
Value expressed in h; do not type the unit.

Answered examples (2):
MOLECULE: Cc1nccn1CC1CCc2c(c3ccccc3n2C)C1=O (centres undefined) [ONDANSETRON]
UNIT SYMBOL: h
half-life: 3.1
--
MOLECULE: COc1ccc2[nH]cc(CCNC(C)=O)c2c1 [MELATONIN]
UNIT SYMBOL: h
half-life: 1

Consider the additional molecule presented here.
Record Cc1[nH]cnc1CN1CCc2c(c3ccccc3n2C)C1=O [ALOSETRON] , field half-life: 1.5

* * *

PROTOCOL: Cmax in human plasma
Type: ADME, cell-free
VALUE TYPE: Cmax

MOLECULE SMILES: COc1ccc2[nH]c3c(c2c1)CCN[C@]31CS[C@@H]2c3c(OC(C)=O)c(C)c4c(c3[C@@H](COC1=O)N1[C@@H]2[C@H]2c3c(cc(C)c(OC)c3O)C[C@@H]([C@@H]1O)N2C)OCO4
RESULT: 107 µg/mL

Consider the additional compound presented here.
Record "N#Cc1ccc2[nH]cc(CCCCN3CCN(c4ccc5oc(C(N)=O)cc5c4)CC3)c2c1" , field Cmax: 0.156 µg/mL

* * *

PROTOCOL: Volume of distribution in Wistar rat
Assay type: ADME
DETAILS: in vivo
VALUE TYPE: Vd (L)
Value expressed in L; do not type the unit.

Record "CCc1cc2c(cc1N1CCC(N3CCOCC3)CC1)C(C)(C)c1[nH]c3cc(C#N)ccc3c1C2=O" , field Vd: 4020

* * *

Parameter 'readout' = pKi; parameter 'system' = 5-hydroxytryptamine receptor 1B (Homo sapiens, UniProt P28222).
Sequence (P28222 whole entry): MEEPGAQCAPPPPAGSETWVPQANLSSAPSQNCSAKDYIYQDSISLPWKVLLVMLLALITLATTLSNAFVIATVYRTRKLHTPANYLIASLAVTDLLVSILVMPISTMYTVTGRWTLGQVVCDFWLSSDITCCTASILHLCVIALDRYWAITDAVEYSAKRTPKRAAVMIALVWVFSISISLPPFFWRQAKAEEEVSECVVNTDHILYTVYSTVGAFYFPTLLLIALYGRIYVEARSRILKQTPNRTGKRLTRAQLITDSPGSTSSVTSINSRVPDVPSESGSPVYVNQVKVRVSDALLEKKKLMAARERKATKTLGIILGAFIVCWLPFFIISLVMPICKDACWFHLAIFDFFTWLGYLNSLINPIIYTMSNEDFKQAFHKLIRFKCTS
# pKi = -log10(concentration in molar units)

// returns pKi for CN(C)CCc1c[nH]c2ccc(C[C@H]3COC(=O)N3)cc12 [ZOLMITRIPTAN] with 5-hydroxytryptamine receptor 1B (Homo sapiens, UniProt P28222); value = 9.40

// returns pKi for "CNS(=O)(=O)CCc1ccc2[nH]cc(C3CCN(C)CC3)c2c1" with 5-hydroxytryptamine receptor 1B (Homo sapiens, UniProt P28222); value = 8.82

* * *

PROTOCOL: Plasma clearance in iv dosed human
DETAILS: in vivo
VALUE TYPE: clearance (mL/min/kg)
Value expressed in mL/min/kg; do not type the unit.

Record "CCC1=C[C@@H]2CN(C1)Cc1c([nH]c3ccccc13)[C@@](C(=O)OC)(c1cc3c(cc1OC)N(C)[C@H]1[C@@](O)(C(=O)OC)[C@H](OC(C)=O)[C@]4(CC)C=CCN5CC[C@]31[C@@H]54)C2" , field clearance: 16.2

* * *

PROTOCOL: Blood clearance in Wistar rat at 0.3 mg/kg, iv
Type: ADME, organism-based
VALUE TYPE: clearance (mL/min)
Value expressed in mL/min; do not type the unit.

Record "CC[C@]12C=CCN3CC[C@@]4(c5cc([C@@]6(C(=O)OC)C[C@@H]7C[C@@H](C(C)(F)F)CN(Cc8c6[nH]c6ccccc86)C7)c(OC)cc5N(C)[C@H]4[C@@](O)(C(=O)OC)[C@@H]1OC(C)=O)[C@@H]32" , field clearance: 667

* * *

PROTOCOL: AUC in Sprague-Dawley rat at 10 mg/kg, iv by LC-MS/MS analysis
Format: ADME, organism-based
Parameters: dose 10 mg/kg, route iv
DETAILS: in vivo
VALUE TYPE: AUC (ng·h/mL)
Value expressed in ng·h/mL; do not type the unit.

Record "Cc1c(-c2ccc(O)cc2)n(Cc2ccc(OCCN3CCCCCC3)cc2)c2ccc(O)cc12" , field AUC: 71

* * *

PROTOCOL: Volume of distribution in human at 80 to 100 mg
Assay type: ADME
DETAILS: dose 80-100 mg
VALUE TYPE: Vd (L/kg)
Value expressed in L/kg; do not type the unit.

Answered examples (2):
COMPOUND: O=C1NCCN1CCN1CCC(c2cn(-c3ccc(F)cc3)c3ccc(Cl)cc23)CC1 [SERTINDOLE]
UNIT SYMBOL: L/kg
Vd: 20

COMPOUND: CC(C)NCC(O)COc1cccc2[nH]ccc12 (stereo not drawn) [PINDOLOL]
UNIT SYMBOL: L/kg
Vd: 2

Consider the additional compound presented here.
Record CC[C@@H](CO)NC(=O)[C@@H]1C=C2c3cccc4[nH]cc(c34)C[C@H]2N(C)C1 [METHYLERGONOVINE] , field Vd: 2.4

* * *

PROTOCOL: Half life of compound in PBS buffer
Assay type: physicochemical
VALUE TYPE: half-life (h)
Value expressed in h; do not type the unit.

Record "COc1ccc2c(c1)c(CC(=O)OCC(=O)O)c(C)n2C(=O)c1ccc(Cl)cc1" , field half-life: 4.5

* * *

PROTOCOL: Elimination half life in rat
Assay type: ADME
DETAILS: in vivo, read-out: beta t1/2 (converted)
VALUE TYPE: half-life (h)
Value expressed in h; do not type the unit.

Record COc1ccc2c(c1)c(CC(=O)O)c(C)n2C(=O)c1ccc(Cl)cc1 [INDOMETHACIN] , field half-life: 7
